biological target: solubilized endothelin converting enzyme (P3 from rat lung); assay: ECE Inhibitor Screening Assay; format: biochemical; conditions: Big ET substrate, 30 minutes at 37° C., HPLC of ET-1 and Big ET, read-out: Inhibition of Endothelin Converting Enzyme IC50
Kindly supply the reported IC50 values for the records listed here.
Give bare numbers, in nM.

Take a look at these entries with their results.
| molecule | units_symbol | IC50 |
| --- | --- | --- |
| CCC(C)C(NC(=O)C(CC1CCCCC1)NC(=O)OC(C)(C)C)C(=O)N[C@@H](CC1CCCCC1)[C@@H](O)[C@@H](O)CC(C)C (stereo partly shown) | nM | 9 |
| CC[C@H](C)[C@H](NC(=O)[C@H](C)N(C1CCCCC1)S(=O)(=O)N1CCN(C)CC1)C(=O)N[C@@H](Cc1ccc2ccccc2c1)[C@@H](O)[C@@H](O)CC(C)C | nM | 5 |
| CCC(C)C(NC(=O)C(CC1CCCCC1)NC(=O)OC(C)(C)C)C(=O)NC(CC(C)C)C(O)CC(=O)NCCc1ccccn1 (stereo not shown) | nM | 10 |
| CCC(C)C(NC(=O)OC(C)(C)C)C(=O)NC(C(=O)NC(CC(C)C)C(O)CC(=O)NCCCCCCO)C(C)CC (stereo not shown) | nM | 39 |
| CCC(C)C(NC(=O)OC(C)(C)C)C(=O)NC(C(=O)NC(CC(C)C)C(O)CC(=O)NCCC(C)C)C(C)CC (stereo not shown) | nM | 19 |

The following molecules each have a reported value; give each one's IC50.
1. CC[C@H](C)[C@H](NC(=O)OCc1ccccc1)C(=O)N[C@H](C(=O)NC(CC(C)C)P(=O)(O)CC(=O)OC(C)(C)C)[C@@H](C)CC (stereo partly shown)
2. CC[C@H](C)[C@H](NC(=O)[C@H](C)N(C(=O)N(C)CCN(C)C)C1CCCCC1)C(=O)N[C@@H](Cc1ccc2ccccc2c1)[C@@H](O)[C@@H](O)CC(C)C
3. CCC(C)C(NC(=O)C(CC1CCCCC1)NC(=O)OC(C)(C)C)C(=O)NC(CC(C)C)C(O)CC(=O)O (stereo not shown)
4. CCC(C)C(NC(=O)C(CC1CCCCC1)NC(=O)OC(C)(C)C)C(=O)N[C@@H](Cc1c[nH]c2ccccc12)C(O)CC(=O)NC(C(=O)O)C(C)C (stereo partly shown)
5. CCC(C)C(NC(=O)OC(C)(C)C)C(=O)NC(C(=O)NC(CC(C)C)C(O)CC(=O)NCCC(=O)O)C(C)CC (stereo not shown)
6. CCC(C)C(NC(=O)OC(C)(C)C)C(=O)NC(C(=O)NC(CC(C)C)C(O)CC(=O)N(C)CC(C)C)C(C)CC (stereo not shown)

Reply text:
1: 33; 2: 5; 3: 47; 4: 24; 5: 30; 6: 10

The following molecules each have a reported value; give each one's IC50.
1. CCC(C)C(NC(=O)C(CC(=O)OCc1ccccc1)NC(=O)OC(C)(C)C)C(=O)NC(C(=O)N[C@@H](CC1CCCCC1)[C@@H](O)[C@@H](O)CC(C)C)C(C)CC (stereo partly shown)
2. CCOC(=O)CC(O)C(CC(C)C)NC(=O)C(NC(=O)C(CC1CCCCC1)NC(=O)OC(C)(C)C)C(C)CC (stereo not shown)

Reply text:
1: 7; 2: 19
